Each item that follows carries a reported viscosity.
particulars: 308.15 K; 101.33 kPa; Liquid; Concentric cylinders viscometry
Express it in mPa·s; write the number only.

* Cc1ccc[n+](CC(C)C)c1.O=S(=O)([N-]S(=O)(=O)C(F)(F)F)C(F)(F)F | 59.56
* CC(C)Cn1cc[n+](C)c1.O=S(=O)([N-]S(=O)(=O)C(F)(F)F)C(F)(F)F | 50.3
* CCCC[n+]1cccc(C)c1.O=S(=O)([N-]S(=O)(=O)C(F)(F)F)C(F)(F)F | 42.46
* CC(C)C[N+]1(C)CCCC1.O=S(=O)([N-]S(=O)(=O)C(F)(F)F)C(F)(F)F | 43.91
* CCCC[N+]1(C)CCCCC1.O=S(=O)([N-]S(=O)(=O)C(F)(F)F)C(F)(F)F | 108.27
* CC(C)C[N+]1(C)CCCCC1.O=S(=O)([N-]S(=O)(=O)C(F)(F)F)C(F)(F)F | 96.4

For the next question, use this compound.
Task item: Any idea what viscosity was measured for CCCC[N+]1(C)CCCC1.O=S(=O)([N-]S(=O)(=O)C(F)(F)F)C(F)(F)F ?
Reply: 51.71

###

particulars: 338.15 K; 101.33 kPa; Liquid; Concentric cylinders viscometry
Numbers after ± are expanded uncertainties.
measured property: viscosity

Worked examples, 5 compounds total:
- CC(C)C[N+]1(C)CCCCC1.O=S(=O)([N-]S(=O)(=O)C(F)(F)F)C(F)(F)F: 28.76 ± 0.36 mPa·s
- CCCC[N+]1(C)CCCC1.O=S(=O)([N-]S(=O)(=O)C(F)(F)F)C(F)(F)F: 19.21 ± 0.16 mPa·s
- CC(C)C[N+]1(C)CCCC1.O=S(=O)([N-]S(=O)(=O)C(F)(F)F)C(F)(F)F: 17.09 ± 0.2 mPa·s
- CCCC[n+]1cccc(C)c1.O=S(=O)([N-]S(=O)(=O)C(F)(F)F)C(F)(F)F: 15.71 ± 0.13 mPa·s
- CC(C)Cn1cc[n+](C)c1.O=S(=O)([N-]S(=O)(=O)C(F)(F)F)C(F)(F)F: 17.24 ± 0.21 mPa·s

Task item: Any idea what viscosity was measured for Cc1ccc[n+](CC(C)C)c1.O=S(=O)([N-]S(=O)(=O)C(F)(F)F)C(F)(F)F ?
Reply: 19.08 ± 0.24 mPa·s

Task item: Now consider CCCC[N+]1(C)CCCCC1.O=S(=O)([N-]S(=O)(=O)C(F)(F)F)C(F)(F)F .
Reply: 31.09 ± 0.29 mPa·s

###

run description: refractive index (Na D-line) (dimensionless)
particulars: 313.15 K; 101.33 kPa; Liquid; Standard Abbe refractometry
measured property: refractive index
Field format: numeric only.

Worked examples, 2 molecules total:
- CCCC[n+]1ccn(C)c1.O=S(=O)([N-]S(=O)(=O)C(F)(F)F)C(F)(F)F: 1.42241
- CCCC[N+]1(C)CCCCC1.O=S(=O)([N-]S(=O)(=O)C(F)(F)F)C(F)(F)F: 1.42521

For the next question, use this molecule.
Task item: Any idea what refractive index was measured for Cc1ccc[n+](CC(C)C)c1.O=S(=O)([N-]S(=O)(=O)C(F)(F)F)C(F)(F)F ?
Reply: 1.44109

###

run description: refractive index (Na D-line) (dimensionless)
particulars: 303.15 K; 101.33 kPa; Liquid; Standard Abbe refractometry
± gives the expanded uncertainty stated by the source.
measured property: refractive index

* Cc1ccc[n+](CC(C)C)c1.O=S(=O)([N-]S(=O)(=O)C(F)(F)F)C(F)(F)F | 1.44426 ± 0.00051

Task item: Any idea what refractive index was measured for CCCC[n+]1ccn(C)c1.O=S(=O)([N-]S(=O)(=O)C(F)(F)F)C(F)(F)F ?
Reply: 1.4255 ± 0.001

Task item: Now consider CCCC[N+]1(C)CCCCC1.O=S(=O)([N-]S(=O)(=O)C(F)(F)F)C(F)(F)F .
Reply: 1.42813 ± 0.00037

Task item: Now consider CCCC[N+]1(C)CCCC1.O=S(=O)([N-]S(=O)(=O)C(F)(F)F)C(F)(F)F .
Reply: 1.42173 ± 0.00037

Task item: Now consider CC(C)Cn1cc[n+](C)c1.O=S(=O)([N-]S(=O)(=O)C(F)(F)F)C(F)(F)F .
Reply: 1.42543 ± 0.00051

Task item: Now consider CC(C)C[N+]1(C)CCCC1.O=S(=O)([N-]S(=O)(=O)C(F)(F)F)C(F)(F)F .
Reply: 1.42273 ± 0.00051

Task item: Now consider CC(C)C[N+]1(C)CCCCC1.O=S(=O)([N-]S(=O)(=O)C(F)(F)F)C(F)(F)F .
Reply: 1.42955 ± 0.00051

Task item: Now consider CCCC[n+]1cccc(C)c1.O=S(=O)([N-]S(=O)(=O)C(F)(F)F)C(F)(F)F .
Reply: 1.44423 ± 0.00037
